B1: HDV Ribozyme (parent)
chain: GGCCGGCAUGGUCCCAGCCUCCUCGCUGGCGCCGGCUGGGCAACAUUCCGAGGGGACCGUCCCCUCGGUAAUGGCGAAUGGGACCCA

variants of: B1; assay: self-cleavage, relative activity (ratio to wild type); higher = more cleavage; co-transcriptional
observedProperty: self-cleavage
Kindly provide the number alone.

Examples from the recorded data:
variant="C33G C44U" assayresult=0.172
variant="G39C C48A" assayresult=0.125

The variant listed as G34U C58U shows self-cleavage equal to 0.153

The variant listed as U47G U72G shows self-cleavage equal to 0.623

The variant listed as C44G G50C shows self-cleavage equal to 0.739

The variant listed as C4A G52U shows self-cleavage equal to 0.213

The variant listed as A42U A51C shows self-cleavage equal to 0.665

Hey, just so you know, these numbers are from the RNAGym collection of RNA variant scans (doi:10.7554/elife.80360).
